protocol notes: Plasma pharmacokinetics of refametinib
Format: in vivo, human
applied conditions: human, plasma, oral, Cmax, cohort 2; cycle 1 day 14, refametinib alone; geometric mean (% CV)
attribute measured: Cmax (ng/mL)
Give the number; ng/mL is assumed, so skip it.

What value of Cmax has been reported for the following molecule? COc1cc(F)c(F)c(Nc2ccc(I)cc2F)c1NS(=O)(=O)C1(C[C@H](O)CO)CC1
943

* * *

protocol notes: Plasma pharmacokinetics of copanlisib
Type: in vivo, human
applied conditions: human, plasma, intravenous, 0.4 mg/kg, Cmax, expansion cohort: copanlisib 0.4 mg/kg weekly, refametinib 30 mg BID; cycle 1 day 1, copanlisib alone; geometric mean (% CV)
attribute measured: Cmax (ng/mL)
Give the number; ng/mL is assumed, so skip it.

What value of Cmax has been reported for the following molecule? COc1c(OCCCN2CCOCC2)ccc2c1N=C(NC(=O)c1cnc(N)nc1)N1CCN=C21
312

* * *

protocol notes: Plasma pharmacokinetics of refametinib
Type: in vivo, human
applied conditions: human, plasma, oral, 30 mg, AUC(0–8), cohort 2B: copanlisib 0.6 mg/kg 3 weeks on/1 week off, refametinib 30 mg BID; cycle 1 day 14, refametinib alone; geometric mean (% CV)
attribute measured: AUC(0-t) (ng·h/mL)
Give the number; ng·h/mL is assumed, so skip it.

What value of AUC(0-t) has been reported for the following compound? COc1cc(F)c(F)c(Nc2ccc(I)cc2F)c1NS(=O)(=O)C1(C[C@H](O)CO)CC1 [refametinib]
3750
